Property: % Positive; scope: individual binders
tgt: T1, cynomolgus monkey GPRC5D (cynomolgus monkey)
T1 construct: whole, on cells; HEK293T-cynoGPRC5D cells; also called cynoGPRC5D
protocol-summary: FACS, HEK293T-cynoGPRC5D cells
Dear colleague, please return just the value in %, with no unit written.

[
  {
    "binder": "87A3G8 (antibody, V domains shown, Mouse monoclonal antibody from hybridoma subclone) VH: QVQLKESGPGLVAPSQSLSITCTVSGFSLSSYSVYWVRQPPGKGLEWLGVIWAGGSTNYNSALMSRLSINKDKSKSQVFLKMNSLQTDDSAIYYCAMRWLPRGLDFWGQGTSVTVSS VL: DIVMTQSHKFMSTSVGDRVSITCKASQDVGTAVAWYQQKPGQSPKLLIYWASTRHTGVPDRFTGSGSGTDFTLTISNVQSEDLADYFCQQYSTYYTFGGGTKLEIK",
    "% Positive [%]": 76.7
  }
]

Measured % Positive, 90G6H3 (antibody, V domains shown, Mouse monoclonal antibody from hybridoma subclone) VH: QAYLQQSGAELVRSGASVKMSCKASGYTFTSYIMHWVKQTPGQGLEWIGYIYPGNGGTNYNQKFKDKATLSADTSSSTAYMQINSLTSEDSAVYFCARWGLRQGFAYWGQGTLVSVSA VL: DIVMTQSQKFMSTSVGDRVSVTCKASQNVGGNVAWYQQKPGQSPKALIYSTSYRNSGVPDRFTGSGSGTDFTLTISNVQSEDLAEYFCQQYNSYPFTFGSGTKLEIR : 99.4

Measured % Positive, 96C9E7 (antibody, V domains shown, Mouse monoclonal antibody from hybridoma subclone) VH: EVQLQQSGPELVKPGASVKMSCKASGYTFTYYILHWVKQKPGQGLEWIGYFNPYNDGNKFNERFRGKATLTSDKSSSTAYMELNSLTSEDSAVYFCARGGVRRYFDVWGAGTTVTVSS VL: DIQMTQSPSSLSASLGERVSLTCRASQDIGSNLNWLQQEPDGTIKRLISATFSLDSGVPKRFSGSRSGSDYSLTISSLESEDFVNYYCLQYASFPYTFGGGTKLEIK : 71.7
